Assignment: determine reported MIC for the given molecules.
test system: Klebsiella pneumoniae; assay: Inhibition of Metallo-beta-lactamase IMP-28 in Klebsiella pneumoniae clinical isolate assessed as MIC for meropenem antibacterial activity at 32 ug/ml (reference value: 4 ug/ml); conditions: dose 32.0 µg/ml
All answers are understood in µg/mL, so give the number only.

Enquiry: Data request, read-out MIC, for `O=C(Cc1ccccc1)N[C@@H]1C(=O)N2C(C(=O)O)=C(CS[C@@H](Cc3ccccc3)C(=O)O)CS[C@H]12`
Return: 1

Enquiry: Data request, read-out MIC, for `O=C(Cc1ccccc1)N[C@@H]1C(=O)N2C(C(=O)O)=C(CSCCc3ccccc3)CS[C@H]12`
Return: 0.5

Enquiry: Data request, read-out MIC, for `O=C(Cc1ccccc1)N[C@@H]1C(=O)N2C(C(=O)O)=C(CSCC(=O)c3ccccc3)CS[C@H]12`
Return: 1
